Where do the numbers come from? From patent US12011444B2.

Assignment: determine reported pIC50 for the given molecules.
- TARGET_UNDER_TEST: EP4 (Homo sapiens (Human), UniProt P35408)
- Sequence (P35408 whole entry): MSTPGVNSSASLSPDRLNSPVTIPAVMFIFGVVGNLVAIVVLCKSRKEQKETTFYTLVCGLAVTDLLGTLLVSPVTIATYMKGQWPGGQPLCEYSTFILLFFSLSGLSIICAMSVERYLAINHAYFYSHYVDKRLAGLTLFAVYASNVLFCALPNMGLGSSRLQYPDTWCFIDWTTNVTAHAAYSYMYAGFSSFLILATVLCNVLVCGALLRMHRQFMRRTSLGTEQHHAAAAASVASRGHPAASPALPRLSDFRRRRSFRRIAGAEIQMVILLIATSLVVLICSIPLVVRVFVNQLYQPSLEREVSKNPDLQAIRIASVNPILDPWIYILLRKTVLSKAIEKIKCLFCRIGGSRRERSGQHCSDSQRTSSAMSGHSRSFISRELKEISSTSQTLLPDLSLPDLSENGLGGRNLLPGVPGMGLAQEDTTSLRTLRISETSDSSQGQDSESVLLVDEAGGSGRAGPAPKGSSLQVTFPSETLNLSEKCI
- MEASUREMENT_NOTES: hEP4 cAMP assay (BT549 breast cancer cells, HTRF cAMP)
- Type: cell-based
- TEST_CONTEXT: antagonistic activity; mean values where measured multiple times
Entry type: numeric. Quantity: pIC50, the -log10 of concentration in molar units.

In: Would you mind telling me what pIC50 value was observed for "CCOc1cc(-c2cc(NCCn3c(C)cc4c(OC)ccc(F)c43)ncn2)ccc1C(=O)NOC(C)C" ?
Out: 6.43

In: Can you share its pIC50? I mean this molecule: "COc1cc(F)cc2c1cc(C)n2CCNc1cc(-c2ccc(-c3oncc3C)cc2)ncn1"
Out: 6.40

In: For the molecule shown here, "COc1ccc(F)c2c1cc(C)n2CCNc1cc(-c2ccc(-c3onc(C)c3C(=O)O)cc2)ncn1" , give the reported pIC50.
Out: 6.65

In: Reported pIC50, molecule "CCOc1cc(-c2cc(NCCn3c(C)cc4c(OC)ccc(F)c43)ncn2)cc(CC)c1C(=O)O" : ____
Out: 6.40
